- assay.target: ctA5 (C-terminal truncated anxA5, lacking domain IV) (Homo sapiens, UniProt P08758, DEL255-320)
- Construct: domain IV (last 66 residues) deleted; reverse primer ends at AYLAET; non-fusion protein released by SspDnaB intein self-cleavage, His6-CBD-intein removed; E. coli BL21(DE3); initiator Met absent
- Sequence (P08758 2-254, stated change not applied): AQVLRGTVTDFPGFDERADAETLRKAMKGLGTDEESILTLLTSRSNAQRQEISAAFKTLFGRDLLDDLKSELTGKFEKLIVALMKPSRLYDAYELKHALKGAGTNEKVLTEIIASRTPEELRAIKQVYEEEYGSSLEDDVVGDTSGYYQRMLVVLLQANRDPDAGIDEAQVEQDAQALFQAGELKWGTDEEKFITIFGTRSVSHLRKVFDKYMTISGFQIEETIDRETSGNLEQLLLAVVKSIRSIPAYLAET
- test.protocol: isothermal titration calorimetry, one-site model
metric: Kd (µM)
Answer with a number only, understood to be in µM.

I'd like to know its Kd. The compound in question is CCCCCCCC/C=C\CCCCCCCC(=O)O[C@H](COC(=O)CCCCCCCCCCCCCCC)COP(=O)(O)OC[C@H](N)C(=O)O [POPS]
158

Origin of the recorded values: paper PMC6149819
